B1: library; a variant is named by its letters at N, in order (parent)
chain: GAGACCGCAACTGAAAAGTTGTGGNNNNNATAGTGAGTCGCTGCCTGCAAAGACACAACT

# Variants of: B1
# experimentSummary: ligation selection enrichment (abundance after / before one-round selection) (fold); higher = more template-directed ligation activity
# conditionSet: with T7Psub CACGGAUGCUAAUACGACUCACUAUA; MgCl2 25 mM; 42 °C; 4 h; pH 8.5
Use 1 when the recorded ligation selection enrichment is no lower than 0.2; use 0 when it is lower.

Below, 5 variants whose answers are already recorded.
GAGACCGCAACTGAAAAGTTGTGGGCTCAATAGTGAGTCGCTGCCTGCAAAGACACAACT [GCTCA]    1
GAGACCGCAACTGAAAAGTTGTGGGTCTCATAGTGAGTCGCTGCCTGCAAAGACACAACT [GTCTC]    0
GAGACCGCAACTGAAAAGTTGTGGGTCGGATAGTGAGTCGCTGCCTGCAAAGACACAACT [GTCGG]    1
GAGACCGCAACTGAAAAGTTGTGGTTCGGATAGTGAGTCGCTGCCTGCAAAGACACAACT [TTCGG]    1
GAGACCGCAACTGAAAAGTTGTGGCTTTAATAGTGAGTCGCTGCCTGCAAAGACACAACT [CTTTA]    1

Now take the following variant into account.
q: Has GAGACCGCAACTGAAAAGTTGTGGTTCCCATAGTGAGTCGCTGCCTGCAAAGACACAACT [TTCCC] a recorded ligation selection enrichment greater than or equal to 0.2?
a: 0
